# Target under test: NS3 protease domain complexed to a modified form of the NS4A peptide (Pep4AK) (Hepatitis C virus genotype 1b, UniProt P26663)
# Construct: NS3 protease domain (residues 1027–1206 of the HCV polyprotein)
# Sequence (P26663 1027-1206, other chains not shown): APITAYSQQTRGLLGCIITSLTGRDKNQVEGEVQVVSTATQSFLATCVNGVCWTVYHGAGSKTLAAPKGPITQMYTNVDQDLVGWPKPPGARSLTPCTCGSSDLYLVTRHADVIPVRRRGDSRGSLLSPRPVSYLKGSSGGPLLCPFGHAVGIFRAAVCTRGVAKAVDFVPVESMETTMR
# Method notes: HCV NS3 protease domain/NS4A cofactor peptide assay (Assay B)
# Format: biochemical
# Protocol conditions: Table 1; NS3 protease domain/Pep4AK, 4AB peptide substrate; read-out: Assay B
Readout: IC50

> print(dat)
                                   compound  readout  observed
1  CC(C)COC(=O)NC(CCC(=O)O)C(=O)NC(CC(C)C)C(=O)NC(CS)C(=O)NCCc1cccc(Cl)c1 (stereo not shown)     IC50  < 100 µM

# ---- query compound ----
Exercise: IC50 lookup needed for Cc1ccccc1CCNC(=O)C(CS)NC(=O)C(CC(C)C)NC(=O)C(CCC(=O)O)NC(=O)OCC(C)C (stereo not shown) , thanks.
Solution: < 100 µM

----------
# Target under test: NS3 protease domain complexed to a modified form of the NS4A peptide (Pep4AK) (Hepatitis C virus genotype 1b)
# Construct: NS3 protease domain (residues 1027–1206 of the HCV polyprotein)
# Method notes: HCV NS3 protease domain/NS4A cofactor peptide assay (Assay B)
# Assay type: biochemical
# Protocol conditions: Table 2; NS3 protease domain/Pep4AK; read-out: Assay B
pIC50: −log10 of the molar value.
// reported pIC50 per item

Recorded pIC50, per entry:
> print(dat)
                                 cpd.smiles  observed
1  COc1ccc(CCNC(=O)[C@H](CS)NC(=O)[C@H](CC(C)C)NC(=O)[C@H](CCC(=O)O)NC(=O)C2CCCCCC2)cc1    > 4.00
2  CC(C)C[C@H](NC(=O)[C@H](CCC(=O)O)NC(=O)Cc1ccccc1CC(=O)O)C(=O)N[C@@H](CS)C(=O)NCCc1ccc(Cl)cc1Cl    > 5.00
3  CC(C)C[C@H](NC(=O)[C@H](CCC(=O)O)NS(=O)(=O)c1cccs1)C(=O)N[C@@H](CS)C(=O)NCCc1ccccc1Cl    > 4.00
4  Cc1ccc(S(=O)(=O)N[C@@H](CCC(=O)O)C(=O)N[C@@H](CC(C)C)C(=O)N[C@@H](CS)C(=O)NCCc2ccccc2Cl)cc1    > 4.00
5  CC(C)C[C@H](NC(=O)[C@H](CCC(=O)O)NC(=O)Nc1ccccc1)C(=O)N[C@@H](CS)C(=O)NCCc1ccccc1Cl    > 4.00

Exercise: pIC50 lookup needed for CC(C)C[C@H](NC(=O)[C@H](CCC(=O)O)NC(=O)[C@@H](O)c1ccccc1)C(=O)N[C@@H](CS)C(=O)NCCc1ccccc1Cl , thanks.
Solution: > 5.00

----------
# Target under test: full length NS3 protein noncovalently complexed with the full-length NS4A cofactor protein (NS3/NS4A complex) (Hepatitis C virus genotype 1b)
# Construct: full length NS3 protein spanning residues 1027–1657 of the HCV polyprotein
# Sequence (P26663 1027-1657): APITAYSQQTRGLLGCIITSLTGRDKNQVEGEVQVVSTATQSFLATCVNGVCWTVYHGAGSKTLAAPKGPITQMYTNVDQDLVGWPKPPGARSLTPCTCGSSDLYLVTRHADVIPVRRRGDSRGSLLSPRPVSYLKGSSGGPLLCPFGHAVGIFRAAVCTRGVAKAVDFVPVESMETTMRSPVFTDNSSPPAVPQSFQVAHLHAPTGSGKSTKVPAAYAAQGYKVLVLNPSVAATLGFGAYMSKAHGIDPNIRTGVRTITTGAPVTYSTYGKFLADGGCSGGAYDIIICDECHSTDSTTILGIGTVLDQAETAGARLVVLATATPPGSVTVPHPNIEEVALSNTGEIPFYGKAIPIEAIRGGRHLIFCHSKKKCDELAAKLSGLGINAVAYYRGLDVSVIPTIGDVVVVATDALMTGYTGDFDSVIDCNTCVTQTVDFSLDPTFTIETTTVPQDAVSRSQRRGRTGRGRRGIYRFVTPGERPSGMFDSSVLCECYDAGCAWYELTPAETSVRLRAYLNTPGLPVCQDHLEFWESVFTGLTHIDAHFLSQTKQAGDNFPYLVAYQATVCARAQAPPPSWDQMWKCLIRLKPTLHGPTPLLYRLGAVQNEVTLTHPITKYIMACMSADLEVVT
# Sequence (P26663 1658-1711): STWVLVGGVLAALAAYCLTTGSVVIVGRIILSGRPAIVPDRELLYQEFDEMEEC
# Method notes: Full-length NS3-NS4A heterodimer protein assay (Assay A)
# Format: biochemical, hepatitis C virus (HCV)
# Protocol conditions: Table 5; full-length NS3/NS4A; read-out: AssayA
pIC50: −log10 of the molar value.
Readout: pIC50

Compound	pIC50
CC[C@H](C)[C@H](NC(=O)OCC(C)C)C(=O)N1C[C@H](C2CCCCC2)C[C@H]1C(=O)N[C@@H](CC(F)F)C(=O)NCCc1c(F)cc(C(=O)O)cc1F [Compound 533]	> 6.00

Exercise: pIC50 lookup needed for CC(C)COC(=O)N[C@H](C(=O)N1C[C@H](c2ccccc2)C[C@H]1C(=O)N[C@@H](CC(F)F)C(=O)NCCc1cn(CCC(=O)O)c2ccccc12)C(C)C [Compound 573] , thanks.
Solution: > 4.00

Exercise: pIC50 lookup needed for CC(C)COC(=O)N[C@H](C(=O)N1C[C@H](C2CCCCC2)C[C@H]1C(=O)N[C@@H](CC(F)F)C(=O)NCCc1ccc(C(=O)O)cc1F)C(C)C [Compound 531] , thanks.
Solution: > 5.00

Exercise: pIC50 lookup needed for CC(Oc1ccc(F)c(CCNC(=O)[C@H](CC(F)F)NC(=O)[C@@H]2C[C@@H](C3CCCCC3)CN2C(=O)[C@@H](NC(=O)OCC(C)(C)C)C(C)C)c1F)C(=O)O (mixture of isomers) [Compound 567] , thanks.
Solution: > 6.00

Exercise: pIC50 lookup needed for CC(C)COC(=O)N[C@H](C(=O)N1C[C@H](c2ccccc2)C[C@H]1C(=O)N[C@@H](CC(F)F)C(=O)NCCc1ccc(-c2nn[nH]n2)cc1)C(C)C [Compound 518] , thanks.
Solution: > 5.00

Exercise: pIC50 lookup needed for CC(C)COC(=O)N[C@H](C(=O)N1C[C@H](c2ccccc2)C[C@H]1C(=O)N[C@@H](CC(F)F)C(=O)NCCc1ccc(-c2noc(=O)[nH]2)cc1)C(C)C [Compound 519] , thanks.
Solution: > 4.00

Exercise: pIC50 lookup needed for CC(C)COC(=O)N[C@H](C(=O)N1C[C@H](OCc2ccccc2)C[C@H]1C(=O)N[C@@H](CC(F)(F)F)C(=O)NCCc1c(F)cc(C(=O)O)cc1F)C(C)C [Compound 530] , thanks.
Solution: > 5.00

Exercise: pIC50 lookup needed for CC[C@H](NC(=O)[C@@H]1C[C@@H](c2ccccc2)CN1C(=O)[C@@H](NC(=O)OCC(C)C)C(C)C)C(=O)NCCc1c(F)cc(C(=O)O)cc1F [Compound 525] , thanks.
Solution: > 4.00

Exercise: pIC50 lookup needed for CC(C)COC(=O)N[C@H](C(=O)N1C[C@H](c2ccccc2)C[C@H]1C(=O)N[C@@H](CC(F)F)C(=O)NCCc1c(F)cc(-c2nn[nH]n2)cc1F)C(C)C [Compound 554] , thanks.
Solution: > 6.00

Exercise: pIC50 lookup needed for CC(C)COC(=O)N[C@@H](CCC(=O)O)C(=O)N1C[C@H](c2ccccc2)C[C@H]1C(=O)N[C@@H](CC(F)F)C(=O)NCCc1c[nH]c2ccccc12 [Compound 575] , thanks.
Solution: > 4.00

Exercise: pIC50 lookup needed for CC(C)COC(=O)N[C@H](C(=O)N1C[C@H](C2CCCCC2)C[C@H]1C(=O)N[C@@H](CC(F)(F)F)C(=O)NCCc1c(F)cc(C(=O)O)cc1F)C(C)C [Compound 529] , thanks.
Solution: > 5.00
